Data provenance: patent US8614215B2

Recorded measurements of pIC50, one per entry
# System: Human recombinant GST-PI3K
# Assay Method Text: PI3K induced-lipid phosphorylation, neomycin-SPA scintillation proximity assay
# Assay type: biochemical
# Condition Notes: Human recombinant GST-PI3K, SPA
Please express pIC50 as -log10 of the molar concentration.

- Compound: "COc1ccc(S(=O)(=O)NCCO)c(Nc2nc3ccccc3nc2NS(=O)(=O)CCCS(C)(=O)=O)c1"
  pIC50: 6.52

Note to self: pIC50 of CCCS(=O)(=O)Nc1nc2ccccc2nc1Nc1cc(OC)ccc1CCS(C)(=O)=O with Human recombinant GST-PI3K was 7.06

Note to self: pIC50 of CCS(=O)(=O)Nc1nc2ccccc2nc1Nc1cc(OC)ccc1CCS(C)(=O)=O with Human recombinant GST-PI3K was 7.06

Note to self: pIC50 of COc1ccc(CO)c(Nc2nc3ccccc3nc2NS(=O)(=O)c2cn(C)cn2)c1 with Human recombinant GST-PI3K was 6.33

Note to self: pIC50 of COc1ccc(C(C)C)c(Nc2nc3ccccc3nc2NS(=O)(=O)c2cn(C)cn2)c1 with Human recombinant GST-PI3K was 6.70

Note to self: pIC50 of COC(=O)c1ccc(OC)cc1Nc1nc2ccccc2nc1NS(=O)(=O)c1cn(C)cn1 with Human recombinant GST-PI3K was 7.68

Note to self: pIC50 of COc1ccc(CCO)c(Nc2nc3ccccc3nc2NS(=O)(=O)c2ccc(NC(=O)CN(C)C)cc2)c1 with Human recombinant GST-PI3K was 7.57

Note to self: pIC50 of COc1ccc(CCO)c(Nc2nc3ccccc3nc2NS(=O)(=O)CCCSC)c1 with Human recombinant GST-PI3K was 7.12

Note to self: pIC50 of COc1ccc(CCO)c(Nc2nc3ccccc3nc2NS(=O)(=O)c2ccc(CN3CCC(F)CC3)cc2)c1 with Human recombinant GST-PI3K was 7.37

Note to self: pIC50 of COc1ccc(CCS(C)(=O)=O)c(Nc2nc3ccccc3nc2NS(=O)(=O)CCCS(C)(=O)=O)c1 with Human recombinant GST-PI3K was 6.46

Note to self: pIC50 of COc1cc(Nc2nc3ccccc3nc2NS(=O)(=O)c2cccnc2)cc(C(=O)N2CCN(C)CC2)c1 with Human recombinant GST-PI3K was 5.48

###

Recorded measurements of IC50, one per entry
# Tested on: Human recombinant GST-PI3K
# Assay Method Text: PI3K induced-lipid phosphorylation, neomycin-SPA scintillation proximity assay
# Format: biochemical
# Condition Notes: Human recombinant GST-PI3K, SPA
Please reply with the bare figure in nM and do not write the unit itself.

Take a look at these entries with their results.
- Chemical Structure: "COc1ccc(CC2CCCC2)c(Nc2nc3ccccc3nc2NS(=O)(=O)c2cn(C)cn2)c1"
  Unit Of Measurement: "nM"
  Value Observed: 180
- Chemical Structure: "COc1ccc(CCCO)c(Nc2nc3ccccc3nc2NS(=O)(=O)c2cn(C)c(CN(C)C)n2)c1"
  Unit Of Measurement: "nM"
  Value Observed: 28
- Chemical Structure: "COc1ccc(CCCO)c(Nc2nc3ccccc3nc2NS(=O)(=O)c2ccc(NC(=O)CN(C)C)cc2)c1"
  Unit Of Measurement: "nM"
  Value Observed: 32

From here, focus on the item given below.
Lab note: COc1ccc(CCO)c(Nc2nc3ccccc3nc2NS(=O)(=O)c2c(C)noc2C)c1 gave IC50 of 286

###

Recorded measurements of IC50, one per entry
# Tested on: Human recombinant GST-PI3K
# Assay Method Text: PI3K induced-lipid phosphorylation, neomycin-SPA scintillation proximity assay
# Type: biochemical
# Condition Notes: Human recombinant GST-PI3K, SPA
Please reply with the bare figure in nM and do not write the unit itself.

Take a look at these entries with their results.
- Chemical Structure: "COc1ccc(CCCO)c(Nc2nc3ccccc3nc2NS(C)(=O)=O)c1"
  IC50 (nM): 64
- Chemical Structure: "COc1ccc(CC2CCSCC2)c(Nc2nc3ccccc3nc2NS(=O)(=O)c2cn(C)cn2)c1"
  IC50 (nM): 100
- Chemical Structure: "COc1ccc(CC2CCCCC2)c(Nc2nc3ccccc3nc2NS(=O)(=O)c2cn(C)cn2)c1"
  IC50 (nM): 450

From here, focus on the item given below.
Lab note: COc1ccc(CC2CCN(C)CC2)c(Nc2nc3ccccc3nc2NS(=O)(=O)c2cn(C)cn2)c1 gave IC50 of 43

###

# Test system: Human recombinant GST-PI3K
# Assay Method Text: PI3K induced-lipid phosphorylation, neomycin-SPA scintillation proximity assay
# Format: biochemical
# Condition Notes: Human recombinant GST-PI3K, SPA
Recorded measurements of pIC50, one per entry
Please express pIC50 as -log10 of the molar concentration.

- Compound: "COc1ccc(CC2CCCCC2)c(Nc2nc3ccccc3nc2NS(=O)(=O)c2ccc(CN(C)C)cc2)c1"
  Tgt: "Human recombinant GST-PI3K"
  pIC50: 6.12
- Compound: "COc1ccc(CCO)c(Nc2nc3ccccc3nc2NS(=O)(=O)c2ccc(C#N)cc2)c1"
  Tgt: "Human recombinant GST-PI3K"
  pIC50: 7.66
- Compound: "COc1cc(Nc2nc3ccccc3nc2NS(C)(=O)=O)cc(C(=O)N2CCOCC2)c1"
  Tgt: "Human recombinant GST-PI3K"
  pIC50: 5.25

Lab note: COc1ccc(CCCO)c(Nc2nc3ccccc3nc2NS(=O)(=O)C2CCNCC2)c1 gave pIC50 of 7.59

Lab note: COc1cc(Nc2nc3ccccc3nc2NS(=O)(=O)CCCS(C)(=O)=O)cc(C(=O)NCCO)c1 gave pIC50 of 6.46

Lab note: COc1ccc(CC2CCC(O)CC2)c(Nc2nc3ccccc3nc2NS(=O)(=O)c2cccnc2)c1 (centres unmarked) gave pIC50 of 7.70

Lab note: COc1ccc(CCOC(=O)[C@@H](N)C(C)C)c(Nc2nc3ccccc3nc2NS(=O)(=O)c2cn(C)cn2)c1 gave pIC50 of 7.00

Lab note: COc1ccc(CN2CCN(C)CC2)c(Nc2nc3ccccc3nc2NS(=O)(=O)c2ccc(F)cc2)c1 gave pIC50 of 6.96

Lab note: COCCNC(=O)c1cc(Nc2nc3ccccc3nc2NS(=O)(=O)c2cn(C)cn2)cc(OC)c1 gave pIC50 of 6.40

Lab note: COC(=O)c1ccc(OC)cc1Nc1nc2ccccc2nc1NS(C)(=O)=O gave pIC50 of 5.78

Lab note: COc1ccc(CCS(C)(=O)=O)c(Nc2nc3ccccc3nc2NS(C)(=O)=O)c1 gave pIC50 of 6.70

Lab note: COCCc1ccc(OC)cc1Nc1nc2ccccc2nc1NS(=O)(=O)c1cn(C)cn1 gave pIC50 of 7.08

Lab note: COc1ccc(C(=O)O)c(Nc2nc3ccccc3nc2NS(=O)(=O)c2cccnc2)c1 gave pIC50 of 5.33

Lab note: COc1ccc(CCCO)c(Nc2nc3ccccc3nc2NS(=O)(=O)C2CCN(C(=O)OCc3ccccc3)CC2)c1 gave pIC50 of 6.14

Lab note: COc1cc(Nc2nc3ccccc3nc2NS(=O)(=O)c2cccnc2)cc(C(=O)N2CCOCC2)c1 gave pIC50 of 5.51

Lab note: COC(=O)c1ccc(OC)cc1Nc1nc2ccccc2nc1NS(=O)(=O)c1cccnc1 gave pIC50 of 7.06

Lab note: COc1ccc(CCO)c(Nc2nc3ccccc3nc2NS(=O)(=O)CCCS(C)(=O)=O)c1 gave pIC50 of 6.92

Lab note: COc1ccc(CC2CCOCC2)c(Nc2nc3ccccc3nc2NS(=O)(=O)c2cn(C)cn2)c1 gave pIC50 of 7.31

Lab note: COc1ccc(CC2CCN(C)CC2)c(Nc2nc3ccccc3nc2NS(C)(=O)=O)c1 gave pIC50 of 6.96

Lab note: COc1ccc(CCCO)c(Nc2nc3ccccc3nc2NS(=O)(=O)C2CCS(=O)(=O)C2)c1 (centres unmarked) gave pIC50 of 6.89

Lab note: COc1ccc(CN2CCOCC2)c(Nc2nc3ccccc3nc2NS(=O)(=O)c2cccnc2)c1 gave pIC50 of 7.14

Lab note: COc1ccc(CC2CCN(S(C)(=O)=O)CC2)c(Nc2nc3ccccc3nc2NS(=O)(=O)c2cn(C)cn2)c1 gave pIC50 of 6.80

Lab note: COc1ccc(CCS(C)(=O)=O)c(Nc2nc3ccccc3nc2NS(=O)(=O)c2ccccc2)c1 gave pIC50 of 7.38

Lab note: CCS(=O)(=O)Nc1nc2ccccc2nc1Nc1cc(OC)ccc1CCCO gave pIC50 of 7.23

Lab note: COc1ccc(CCS(C)(=O)=O)c(Nc2nc3ccccc3nc2NS(=O)(=O)c2cn(C)c(CN(C)C)n2)c1 gave pIC50 of 7.06

Lab note: COc1ccc(CCO)c(Nc2nc3ccccc3nc2NS(=O)(=O)c2ccc(OCCO)cc2)c1 gave pIC50 of 7.47

Lab note: COc1ccc(CCCO)c(Nc2nc3ccccc3nc2NS(=O)(=O)CCCS(C)(=O)=O)c1 gave pIC50 of 6.92
